Source listed as ChEMBL document CHEMBL4825712.

# Tested on: Influenza A virus
# ASSAY_PROTOCOL: Antiviral activity against Influenza A virus A/WSN/33(H1N1)-PB2-Nanoluc virus infected in human A549 cells assessed as decrease in Nano-luc pretreated for 2 hr followed viral infection incubated for 24 hrs by Nano-Glo luminescence assay
# Assay type: functional, organism-based
# ASSAY_CONDITIONS: A/WSN/1933(H1N1)

{"COMPOUND_STRUCTURE": "CCN(C(=O)c1cc(Cl)ccc1Cl)c1ccc(Cl)cc1C", "STUDY_SYSTEM": "Influenza A virus", "IC50": "> 5 µM"}
{"COMPOUND_STRUCTURE": "C#CCCC1(CCOC(=O)Cc2ccc(N(CC)S(=O)(=O)c3cc(Cl)ccc3Cl)cc2)N=N1", "STUDY_SYSTEM": "Influenza A virus", "IC50": "> 5 µM"}
{"COMPOUND_STRUCTURE": "O=S(=O)(c1cc(Cl)ccc1Cl)N1CCCc2cc(Cl)ccc21", "STUDY_SYSTEM": "Influenza A virus", "IC50": "> 5 µM"}
{"COMPOUND_STRUCTURE": "O=S(=O)(c1cc(Cl)ccc1Cl)N1CCc2cc(Cl)ccc21", "STUDY_SYSTEM": "Influenza A virus", "IC50": "> 5 µM"}
{"COMPOUND_STRUCTURE": "C#CCCC1(CCN(c2ccc(Cl)cc2C)S(=O)(=O)c2cc(Cl)ccc2Cl)N=N1", "STUDY_SYSTEM": "Influenza A virus", "IC50": "> 5 µM"}
{"COMPOUND_STRUCTURE": "C#CCN(c1cccc(N=[N+]=[N-])c1)S(=O)(=O)c1cc(Cl)ccc1Cl", "STUDY_SYSTEM": "Influenza A virus", "IC50": "136 µM"}
